# Read-out: Plasminogen activator inhibitor-1 (PAI1), SERPINE1 (gene 5054)
# test.protocol: BSK_BE3C_PAI1: BioMAP Diversity Plus: BE3C Assay for Plasminogen activator inhibitor-1 (PAI1) Biomarker Activity (AID 2283037)
# experimental.context: primary human bronchial epithelial cells; actives raise or lower the signal
Activity calls are given as the source filed them. How the source made its calls: active means hit-call score of the fitted dose curve at least 0.9, where 1 is the maximum; inactive means score below 0.9.
Please state which outcome applies, choosing from y for active, n for inactive

- molecule: "CCCCCCOC(=O)c1ccccc1C(=O)OCCCCCC"
  assigned.class: "n"
- molecule: "O=C(O)C(F)(F)C(F)(F)C(F)(F)C(F)(F)C(F)(F)F"
  assigned.class: "n"
- molecule: "Cc1cccc([N+](=O)[O-])c1"
  assigned.class: "n"
- molecule: "CC(C)(c1ccccc1)c1ccc(O)cc1"
  assigned.class: "y"
- molecule: "CCOP(=S)(OCC)SCSC(C)(C)C"
  assigned.class: "n"

Could you please tell me the result logged for CC1=C2C[C@H]3[C@@H](CC=C4C[C@@H](O)CC[C@@]43C)[C@@H]2CC[C@]12O[C@@H]1C[C@H](C)CN[C@H]1[C@H]2C in this assay?
n

###

# Read-out: Vascular cell adhesion molecule 1 (VCAM1), VCAM1 (gene 7412)
# test.protocol: BSK_4H_VCAM1: BioMAP Diversity Plus: 4H Assay for Vascular cell adhesion molecule 1 (VCAM1) Biomarker Activity (AID 2283033)
# experimental.context: primary human endothelial cells (HUVEC); actives raise or lower the signal
Calls of active or inactive are those of the source. How the source made its calls: active means hit-call score of the fitted dose curve at least 0.9, where 1 is the maximum; inactive means score below 0.9.
Classes to choose from: active, inactive

Some solved entries appear below for comparison.
- molecule: "O=S(=O)(O)C(F)(F)C(F)(F)C(F)(F)C(F)(F)C(F)(F)C(F)(F)F"
  assigned.class: "inactive"
- molecule: "ClC1=C(Cl)[C@]2(Cl)[C@@H]3[C@H]4C[C@H]([C@@H]5O[C@H]45)[C@@H]3[C@@]1(Cl)C2(Cl)Cl"
  assigned.class: "inactive"
- molecule: "CN(C)CCO"
  assigned.class: "inactive"
- molecule: "Cc1ccccc1O"
  assigned.class: "inactive"
- molecule: "Cc1cc(-c2ccc(N)c(C)c2)ccc1N"
  assigned.class: "inactive"

Called result for CN(C)c1nc(=O)n(C2CCCCC2)c(=O)n1C
inactive

Test call for this compound, please: O=C(O)C(F)(F)C(F)(F)C(F)(F)C(F)(F)C(F)(F)F
inactive

Can you look up the reported call for C=CC(N)=O for me?
inactive

Name the outcome recorded for C[C@]12CCC(=O)C=C1CC[C@@H]1[C@@H]2CC[C@@]2(C)[C@H]1CC[C@]2(C)O in the assay.
inactive

Query: recorded result category for CCC(=O)O[C@H]1CC[C@H]2[C@@H]3CCC4=CC(=O)CC[C@]4(C)[C@H]3CC[C@]12C in this test
active

Entry CCCCCCCCOC(=O)c1ccccc1C(=O)OCCCCCCCC : call = ?
inactive

Which outcome was assigned to Clc1ccc(C(Cl)(Cl)Cl)cc1 in this test?
inactive

###

# Read-out: Early growth response protein 1 (EGR1) transcription factor, EGR1 (gene 1958)
# test.protocol: LTEA_HepaRG_EGR1: Life Technologies and Expression Analysis (LTEA) Assay for Early growth response protein 1 (EGR1) transcription factor using HepaRG (AID 2283490)
# experimental.context: mRNA level, 48 h; actives raise or lower the signal
Calls of active or inactive are those of the source. How the source made its calls: active means hit-call score of the fitted dose curve at least 0.9, where 1 is the maximum; inactive means score below 0.9.
Your reply should match one of these outcome classes. active, inactive

Check the results log: what was the call for N#Cc1ccc(N(CC(N)=O)CC(F)(F)F)cc1C(F)(F)F ?
inactive

Field: outcome | Entry: CC#Cc1cc(C)nc(Nc2ccccc2)n1
inactive

Call for entry CN(C)c1nc(=O)n(C2CCCCC2)c(=O)n1C :
inactive

Please state the recorded outcome for this molecule: Nc1ccc(-c2ccc(N)cc2)cc1
inactive

State the result this test recorded for C1CC2OC2CC1C1CO1 (stereo not drawn) .
inactive

// outcome(item) with item = CCC(C)(c1ccc(O)cc1)c1ccc(O)cc1
inactive

GET /call?item= O=C(NC(=O)c1c(F)cccc1F)Nc1cc(Cl)c(OC(F)(F)C(F)F)c(Cl)c1 returns the recorded outcome of this test.
inactive

What call does the record list for Clc1ccc(C(Cl)(Cl)Cl)cc1 ?
inactive

Status in this test for ClC1=C(Cl)[C@]2(Cl)[C@@H]3[C@@H](Cl)[C@H]4O[C@H]4[C@@H]3C1(Cl)C2(Cl)Cl ?
inactive

Recorded test call requested for CC(C)(O)C(=O)Nc1ccc([N+](=O)[O-])c(C(F)(F)F)c1
active

Returns: the outcome recorded for Cc1cccc([N+](=O)[O-])c1 in this assay.
inactive

Which result was noted for this molecule in the test: Cc1ccccc1O
inactive

Each molecule tested received a call. Report the one for CCNc1nc(NC(C)C)nc(SC)n1 .
inactive
